# Test system: M14 melanoma
# TEST_SUMMARY: NCI tumour cell line growth inhibition, 48 h
Listing: TGI of selected compounds
ENDPOINT_LABEL: TGI

compound="CCCCCCCCO/N=C\\c1c2c(O)c3c(O)c(C)c4c(c3c1O)C(=O)C(C)(O/C=C\\C(OC)C(C)C(OC(C)=O)C(C)C(O)C(C)C(O)C(C)/C=C\\C=C(\\C)C(=O)N2)O4 (centres undefined)" reported_value="5.4 µM"
compound="CCOC(=O)C(NC(=O)NCc1ccc(F)cc1)C(F)(F)F (centres undefined)" reported_value="> 100 µM"
compound="CC/C(=C/OC)P1(=O)OC(C)(C)CN1C(C)(C)C (centres undefined)" reported_value="> 100 µM"
compound="O=C1CC(N2C(=O)/C(=C/C(Cl)=C\\c3ccc([N+](=O)[O-])cc3)SC2=S)C(=O)N1c1ccc(Cl)cc1 (centres undefined)" reported_value="5.06 µM"
compound=O=c1c2cc([N+](=O)[O-])cnc2sn1-c1ccc(Oc2ccccc2)cc1 reported_value="> 100 µM"
compound=CSC1=N/C(=C\c2ccc(Cl)cc2)C(=O)N1CN1CCOCC1 reported_value="> 100 µM"
compound=COc1cc2c3c(n(CCCn4ccnc4)c(=O)c2cc1OC)-c1ccccc1C3=O reported_value="0.116 µM"
compound=CNC(=O)c1ccc(Nc2nc(OC3CCCC3)c3c(-c4ccc5nc(C)oc5c4)c[nH]c3n2)c(OC)c1 reported_value="> 100 µM"
compound="CC(=O)C1(c2ccccc2)CCCN(C)CC1 (centres undefined)" reported_value="> 100 µM"
